tested on: Leishmania donovani; assay: Leishmania intramacrophage assay; assay type: functional, organism-based; parameters: scale not given: in the data most compounds retested in dose-response had high values; conditions: 30.3 µM; […]
The whole screen tested about 69,000 compounds, of which about 1,000 (1.4%) showed an effect of 50% or more. This excerpt belongs to a sample that is enriched for strong results.
Friendly reminder: Percent Effect below 10% is T, at or above is F.

Answered examples (3):
O=C1N(CCc2ccccc2)CCCC1(O)CNCc1ccc(F)cc1 (stereo not drawn); F
CC1(C)CN(C(CNS(C)(=O)=O)c2ccc(Cl)cc2)CCO1 (stereo not drawn); F
COCCNC(=O)c1cc(-c2ccc3c(c2)CCO3)n[nH]1; T

[Q] Confirm or reject: Percent Effect of CN1CCn2c(-c3cccc(F)c3)cnc2C12CCN(CC1CC1)CC2.O=C(O)C(F)(F)F.O=C(O)C(F)(F)F.O=C(O)C(F)(F)F lies strictly below 10%
[A] T

[Q] Okay, and N#Cc1c(Cl)nsc1NCc1ccnc(OCC(F)(F)F)c1 ?
[A] F

[Q] Okay, and N#CCCCS(=O)(=O)NC1(c2cccc(Cl)c2)CC1 ?
[A] F

---

system: Leishmania donovani; experiment: Leishmania intramacrophage assay; type: functional, organism-based; design: scale not given: in the data most compounds retested in dose-response had high values; settings: 30.3 µM; […]
Out of some 69,000 compounds screened, about 1,000 (1.4%) showed an effect of 50% or more. Only a selection was taken, and strong results are over-represented in it overall.
Here, each record is paired with measured Percent Effect data.
A number alone suffices; assume %.

Below: 6 molecules and their reported Percent Effect.
CCc1ccc(CN(CCN(C)C)Cc2ccc(C)s2)nc1; 60.62
CCN1CCCC(O)(c2nc(C)c(CCOc3ccccc3F)s2)CC1 (stereo unspecified); 7.204
O=C(c1nc(N2CCCC2)ncc1Cl)N1CCN(Cc2ccsc2)CC1; 1.991
CC(C1CC1)N(C(=O)CNc1ccc(C#N)cc1)C1CC1 (stereo unspecified); 26.89
CN1CCN(c2nsc(-c3cccnc3)c2C#N)CC1; 11.24
Nc1nnc(CCNC(=O)c2cccc(C3CCCNC3)c2)s1 (stereo unspecified); 5.236

[Q] Can you look up Percent Effect on Leishmania donovani for CC/N=c1/c(NC(=O)C2CC2)c(O)oc2ccccc12 ?
[A] -64.73

[Q] Okay, and Cc1nc(C2(O)CCCNCC2)sc1CCOc1ccccc1F.Cl (stereo unspecified) ?
[A] 57.78

[Q] Okay, and Cc1noc([C@H]2C[C@H]3CN(C(=O)C4CCOCC4)CC[C@@H]3O2)n1 ?
[A] 60.92

[Q] Okay, and CC1CCC(NCCCN2CCOCC2)CC1 (stereo unspecified) ?
[A] 41.59

[Q] Okay, and Cn1cc(CN2C[C@H]3CCC[C@@]3(COCC3CC3)C2)cn1.O=C(O)C(F)(F)F ?
[A] 55.4

---

system: Leishmania donovani; experiment: Leishmania intramacrophage assay; type: functional, organism-based; set-up: scale not given: in the data most compounds retested in dose-response had high values; conditions: 30.3 µM; […]
Among all 69,000 compounds or so, about 1,000 (1.4%) showed an effect of 50% or more. Shown is part of a subset that was picked to be rich in strong results.
observation type: Percent Effect

CSc1ccc(CNC(=O)C2CC(=O)N(C(C)(C)C)C2)cc1 (configuration not stated); 55.18%
CC(C)CN1CC(C(=O)NCCNc2ncccn2)CC1=O (configuration not stated); 7.647%
COc1ncccc1CN1CC[C@]2(C[C@@H](OCc3ccccn3)CO2)C1.O=C(O)C(F)(F)F.O=C(O)C(F)(F)F.O=C(O)C(F)(F)F; -3.573%

[Q] Consider the molecule CCN1CC(C(=O)NCc2cccc(SC)c2)CC1=O (configuration not stated) and give its measured Percent Effect.
[A] -29.4%

[Q] Okay, and CS(=O)(=O)CCNC(=O)N1CC2(CCCC2)c2ccccc21 ?
[A] 0.5956%

[Q] Okay, and Cc1ccc(F)c(C(=O)N2C[C@@H](C(=O)O)[C@H](c3ccncc3)C2)c1Cl ?
[A] 16.35%

[Q] Okay, and Cc1cccnc1CC(C)N(C)C(=O)c1cccs1 (configuration not stated) ?
[A] 22.03%

[Q] Okay, and O=C(CCN1CCCCO1)NCc1cn2c(n1)SCC2 ?
[A] -7.597%

[Q] Okay, and Cc1cc(C(=O)Nc2nnn[nH]2)ccc1I ?
[A] 2.496%

[Q] Okay, and OC1(CN2CCCC2)COCCN(c2nccs2)C1 (configuration not stated) ?
[A] -9.416%

[Q] Okay, and Cn1ccnc1CN1CCc2c(COCC3CC3)nn(C)c2C1 ?
[A] 17.02%

[Q] Okay, and O=C1CC(NCc2cccc(O)c2)CN1CCc1cccc(Cl)c1 (configuration not stated) ?
[A] 24.84%

---

tested on: Leishmania donovani; assay: Leishmania intramacrophage assay; assay type: functional, organism-based; set-up: scale not given: in the data most compounds retested in dose-response had high values; conditions: 30.3 µM; […]
Screen size: about 69,000 compounds; about 1,000 (1.4%) showed an effect of 50% or more. For the sample, strong results were picked, then their nearest neighbours and some compounds at random.
observation type: Percent Effect (%)
A number alone suffices; assume %.

[Q] Consider the compound CCC(Nc1nc(C)nc2onc(C)c12)c1nc(C)c(C)s1 (stereo not drawn) and give its measured Percent Effect.
[A] 15.33

[Q] Okay, and COc1cccc(C(C(=O)O)N2CCC(Cn3cccn3)CC2)c1OC (stereo not drawn) ?
[A] 3.274

[Q] Okay, and CN(CCO)C(=O)Nc1ccn(-c2cccc(C(F)(F)F)c2)n1 ?
[A] 13.55

---

Here, each record is paired with measured Percent Effect data.
test system: Leishmania donovani; experiment: Leishmania intramacrophage assay; type: functional, organism-based; parameters: scale not given: in the data most compounds retested in dose-response had high values; conditions: 30.3 µM; […]
The campaign covered roughly 69,000 compounds. About 1,000 (1.4%) showed an effect of 50% or more. Shown is part of a subset that was picked to be rich in strong results.
A number alone suffices; assume %.

Below: 5 molecules and their reported Percent Effect.
Cc1cc2nc(C(C)C)cc(N3CCC(N(C)C)C3)n2n1 (stereo unspecified); 15.59
CSc1cccc(NC(=O)CCC(=O)Nc2nccs2)c1; 36.02
O=C(O)C(F)(F)F.O=C(O)[C@]12CCCN(CC3CCOC3)C[C@H]1CN(c1ncccn1)C2 (stereo partly specified); 22.4
CSc1ncnc(NCc2cccs2)c1C#N; 10.2
CC(=O)c1cnc(NCCN2CCCC(c3ccccc3)C2)nc1C (stereo unspecified); -39.73

Turning to the following molecule.
[Q] Consider the molecule COc1ccc(C2CCCN2C(=O)NCCNc2ccccn2)cc1 (stereo unspecified) and give its measured Percent Effect.
[A] 69.63

---

test system: Leishmania donovani; test: Leishmania intramacrophage assay; assay type: functional, organism-based; parameters: scale not given: in the data most compounds retested in dose-response had high values; conditions: 30.3 µM; […]
The campaign covered roughly 69,000 compounds. About 1,000 (1.4%) showed an effect of 50% or more. Many of the other results were omitted from the sample, so strong results are more common in it than they were.
observation type: Percent Effect (%)
A number alone suffices; assume %.

Below: 6 molecules and their reported Percent Effect.
CC(=O)Nc1cc2c(cc1C)OCO2; 3.338
CO[C@H]1CCN(Cc2ccoc2)C[C@@H]1Cc1ccccc1.O=C(O)C(F)(F)F; 25.61
Cc1csc(CN2CCC[C@]3(C[C@@H](OCC4CC4)CO3)C2)n1.O=C(O)C(F)(F)F; 2.266
O=C(c1csc(-c2ncccn2)n1)N1CCN(C2CCCC2)CC1; 15.8
Cc1nc(N)ncc1C(=O)N1CCCC(CCc2ccc(F)c(F)c2)C1 (stereo unspecified); 6.718
CC(NC(=O)c1ccnn1C)c1ccc(OCC2CC2)c(F)c1 (stereo unspecified); 27.82

Turning to the following molecule.
[Q] Can you look up Percent Effect on Leishmania donovani for CC(C)Nc1nc2c(c(NC3CC3)n1)CCN(C(=O)C1CCOC1)CC2 (stereo unspecified) ?
[A] 26.08

---

test system: Leishmania donovani; assay: Leishmania intramacrophage assay; format: functional, organism-based; set-up: scale not given: in the data most compounds retested in dose-response had high values; settings: 30.3 µM; […]
Screen size: about 69,000 compounds; about 1,000 (1.4%) showed an effect of 50% or more. What follows is part of a selection rich in strong results, with near analogues and random picks from the rest.
observation type: Percent Effect (%)
A number alone suffices; assume %.

COc1ccc(-c2cc(CNc3ncnc4c3CCNCC4)no2)cc1; 66.16
Cc1nn(C)c2c(NCc3ccccn3)ncnc12; 50.68

[Q] Consider the molecule CC(=O)NC1CCCc2c1[nH]c1ccc(F)cc21 (configuration not stated) and give its measured Percent Effect.
[A] 4.787

[Q] Okay, and Fc1ccc2[nH]c3c(c2c1)CCN1C(c2ccncc2)N2CCC31CC2 (configuration not stated) ?
[A] 86.05

[Q] Okay, and COCCNC(=O)[C@@H]1CN(c2ncccn2)C[C@H]2OCC[C@H]21 ?
[A] 9.036

[Q] Okay, and c1ccc(Cn2cc(CNc3ncnc4c3CCNCC4)cn2)cc1 ?
[A] 13.57

[Q] Okay, and COc1cccc(-n2cc(CN(C)Cc3ccnc(C(C)C)n3)cn2)c1 ?
[A] 11.44

[Q] Okay, and CCn1nnc(NCc2cc(Cl)cc(Cl)c2OC)n1 ?
[A] -5.532

[Q] Okay, and CCOc1c(CNCCCn2ccnc2)cc(Cl)cc1OC.Cl.Cl ?
[A] 35.73

[Q] Okay, and Cc1nn(C)c2cn(C(C)C(=O)NCc3ccccn3)nc12 (configuration not stated) ?
[A] 50.14

[Q] Okay, and CC(C)c1cc(C(=O)N2CC[C@@H](c3ccc4c(c3)OCO4)[C@H](O)C2)[nH]n1 ?
[A] 26.43

[Q] Okay, and c1cncc(-c2noc(CCNc3ncnc4c3CCNCC4)n2)c1 ?
[A] 24.85
